# ASSAY_SYSTEM: MRGPRX4 (Homo sapiens, UniProt Q96LA9)
# Sequence (Q96LA9 whole entry): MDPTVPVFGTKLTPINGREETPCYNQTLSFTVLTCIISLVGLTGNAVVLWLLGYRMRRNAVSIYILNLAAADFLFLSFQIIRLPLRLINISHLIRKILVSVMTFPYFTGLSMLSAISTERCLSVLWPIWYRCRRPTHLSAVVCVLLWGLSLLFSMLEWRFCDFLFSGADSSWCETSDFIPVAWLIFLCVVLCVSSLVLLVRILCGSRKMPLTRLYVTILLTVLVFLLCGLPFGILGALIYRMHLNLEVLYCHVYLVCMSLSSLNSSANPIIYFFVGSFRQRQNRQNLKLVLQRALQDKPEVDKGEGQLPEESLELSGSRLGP
# ASSAY_DETAILS: MRGPR X4 antagonist activity, IP-One Gq HTRF assay in stably transfected HEK cells (versus agonist bilirubin, deoxycholic acid, conjugated bilirubin, urobilin, obeticholic acid or BAR502)
# Type: cell-based
# Design: expressed in transfected cells; host or cells: HEK cells, stably transfected
# CONDITIONS_USED: versus 10 μM Bilirubin agonist; HEK cells expressing human MRGPR X4; read-out: MRGPR4 Antagonist Activity
# Procedure: HEK cells stably transfected to express human MRGPR X4 were maintained in an incubator at 37° C. with 5% CO2 and grown in DMEM media with 10% fetal bovine serum (FBS) and 1% each of sodium pyruvate, Glutamax, penicillin/streptomycin, and Geneticin. […] Cells were plated in a 384-well assay plate at 20,000 cells per well in 12 μL of Opti-MEM and kept in an incubator overnight. […] The plate was read on a Molecular Devices SpectraMax iD5 plate reader. […]
MEASURED_ENDPOINT: IC50

CNCc1cccc(COc2ccc(C(F)(F)F)cc2Cl)c1 [Compound 63-1]
100 to 500 nM

Fill in the blank: the reported IC50 of N#Cc1cc(C#Cc2ccc(C(F)(F)F)cc2Cl)cc(C(=O)O)c1 [Compound 60-1] is ____.
100 to 500 nM

And what about the compound Cc1cc(C#N)ccc1OCc1cccc(C(=O)O)c1 [Compound 1-99] ?
100 to 500 nM

And O=C(O)c1cccc(COc2ccccc2Cl)c1F [Compound 4-29] ?
> 2500 nM

Repeat for the following compound: O=C(O)c1cccc(COc2cccc3c2CCC3)c1 [Compound 1-33]
1000 to 2500 nM

Again, but for Cc1cc(C(F)(F)F)ccc1OCc1cc(F)cc(C(=O)O)c1 [Compound 9-2]
< 100 nM

Would you mind doing O=C(O)c1cccc(COc2ccc3c(c2)C(=O)CCC3)c1 [Compound 1-151] as well?
> 2500 nM

Moving on to the next compound: Cc1cc(F)c(F)cc1OCc1cccc(C(=O)O)c1 [Compound 1-71]
500 to 1000 nM

Let us now turn to O=C(O)c1cccc(COc2ccc3ccccc3c2Cl)c1F [Compound 4-21]
< 100 nM

Please give the result for O=C(O)c1cccc(COc2ccc(C(F)(F)F)c(Cl)c2)c1 [Compound 1-118] too.
< 100 nM

Continue with FC(F)(F)c1ccc(OCc2cccc(-c3nc[nH]n3)c2)c(Cl)c1 [Compound 45-2]
500 to 1000 nM

Same again, this time with O=C(O)c1cccc(COc2cccc(Cl)c2F)c1 [Compound 1-75]
1000 to 2500 nM

====

The following molecules are shown together with reported IC50 values.
# ASSAY_SYSTEM: UniProt Q96LA9
# ASSAY_DETAILS: MRGPR X4 antagonist activity, IP-One Gq HTRF assay in stably transfected HEK cells (versus agonist bilirubin, deoxycholic acid, conjugated bilirubin, urobilin, obeticholic acid or BAR502)
# Format: cell-based
# Parameters: expressed in transfected cells; host or cells: HEK cells, stably transfected
# CONDITIONS_USED: versus 10 μM Bilirubin agonist; HEK cells expressing human MRGPR X4; read-out: MRGPR4 Antagonist Activity

C[C@@H](O)[C@H](NC(=O)c1cccc(COc2ccc(C(F)(F)F)cc2Cl)c1)C(=O)O [Compound 54-8]
500 to 1000 nM
CCOC(=O)c1cccc(COc2ccc(C(F)(F)F)cc2Cl)n1 [Compound 56-2]
< 100 nM
O=C(O)c1cccc(COc2cccc(C(F)F)c2)c1 [Compound 1-100]
> 2500 nM
N#CCNC(=O)c1ccc(COc2ccc(C(F)(F)F)cc2Cl)cc1 [Compound 52-6]
100 to 500 nM
COc1ccc(C(=O)O)cc1COc1ccc(Cl)cc1Cl [Compound 1-27]
> 2500 nM

May I ask what IC50 has been recorded for N#Cc1ccc(OCc2cccc(C(=O)O)c2)cc1 [Compound 1-34] ?
> 2500 nM

Now the molecule CC(C)[C@H](NC(=O)c1cccc(COc2ccc(C(F)(F)F)cc2Cl)c1)C(=O)O [Compound 54-1]
100 to 500 nM

Next entry: O=C(O)c1cccc(COc2ccc(C3CC3)cc2)c1 [Compound 1-46]
1000 to 2500 nM

Further, for O=C(O)c1cccc(COc2cc(Cl)ccc2Cl)c1 [Compound 1-19] ?
1000 to 2500 nM
